The origin of these recorded values is patent US10799442B2.

- System: human miRNA145
- test: miRNA145 inhibition on Human Keratinocyte HaCaT cell line, direct quantification by luminescence
- Type: cell-based
- experimental_context: HaCaT cells, 0.3 mg/ml, 24 hours, normalized with Snord48; mean of 3 experiments for DD14024, one experiment for the others
test_readout: Relative level of miRNA145 respect to basal control (%)
// units = %; emit number, no label

Examples with answers:
*Q* Which value of Relative level of miRNA145 respect to basal control (%) has been reported for H-Gln-Glu-Met-Arg-Ile-Gln-NH2 (H-QEMRIQ-NH2) [DD15019] in the records?
*A* 67.00

*Q* Requested field: Relative level of miRNA145 respect to basal control (%). Item: Ac-Gln-Glu-Met-Arg-Met-Glu-OH (Ac-QEMRME-OH) [DD15020]
*A* 62.43

*Q* Requested read-out: Relative level of miRNA145 respect to basal control (%). Entry: Ac-Asp-Glu-Met-Arg-Met-Gln-OH (Ac-DEMRMQ-OH) [DD15012]
*A* 71.05

*Q* # input substance: Ac-Gln-Glu-Met-Arg-Met-Gln-Thr-NH2 (Ac-QEMRMQT-NH2) [DD15047] ; wanted: its Relative level of miRNA145 respect to basal control (%)
*A* 77.67

Turning now to a further substance:
*Q* # input substance: H-Gln-Glu-Ile-Arg-Met-Gln-NH2 (H-QEIRMQ-NH2) [DD15016] ; wanted: its Relative level of miRNA145 respect to basal control (%)
*A* 87.63

====

- Tested on: human miRNA145
- test: miRNA145 inhibition on Human Keratinocyte HaCaT cell line, direct quantification by luminescence
- Format: cell-based
- experimental_context: HaCaT cells, 0.3 mg/ml, 24 hours, normalized with Snord48; mean of 3 experiments for DD14024, one experiment for the others
- Procedure: The synthetic peptide candidates are evaluated for the inhibition of human miRNA145 expression level using a direct miRNA145 quantification assay based on luminescence detection in a Human Keratinocyte HaCaT cell line. […] The miRNA145 expression level result is normalized with the Snord48 expression level for each cell culture condition and the relative decrease in the miRNA145 expression level is calculated respect to basal control (cells treated with culture medium only). […]
test_readout: Relative level of miRNA145 respect to basal control (%)
Field: numeric (%). Do not append units.

*Q* Recorded Relative level of miRNA145 respect to basal control (%) of Ac-Gln-Glu-Met-Lys-Met-Gln-OH (Ac-QEMKMQ-OH) [DD15017] , please.
*A* 85.50

*Q* Quick one: Relative level of miRNA145 respect to basal control (%) of Ac-Gln-Glu-Met-Lys-Leu-Gln-OH (Ac-QEMKLQ-OH) [DD15024] ?
*A* 87.92

*Q* // query Relative level of miRNA145 respect to basal control (%) value for entry Ac-QEMRMQ-OH [DD14024, Ac-Gln-Glu-Met-Arg-Met-Gln-OH]
*A* 85.06

*Q* Please give the measured Relative level of miRNA145 respect to basal control (%) for this substance: Ac-Gln-Asp-Met-Lys-Met-Asn-OH (Ac-QDMKMN-OH) [DD15027]
*A* 78.47

*Q* Entry Ac-Asp-Gln-Met-Arg-Met-Gln-OH (Ac-DQMRMQ-OH) [DD15053] has what Relative level of miRNA145 respect to basal control (%)?
*A* 58.64

*Q* Param item = Ac-Glu-Gln-Met-Arg-Met-Gln-OH (Ac-EQMRMQ-OH) [DD15054] ; retrieve measured Relative level of miRNA145 respect to basal control (%).
*A* 72.50

Moving on to another substance below.
*Q* Value lookup for Relative level of miRNA145 respect to basal control (%); key = Ac-Gln-Gln-Met-Arg-Met-Gln-OH (Ac-QQMRMQ-OH) [DD15014]
*A* 80.06
